Test system: Organic anion transporters (OATs)
PROTOCOL DETAILS: In vivo microdialysis pharmacokinetics of LVFX with OATs inhibitor probenecid
Set-up: species or system rat
CONDITION LABEL: rat, brain ECF / blood, intravenous, with Probenecid 50 mg/kg i.p., 30 min before LVFX; AUCu,ECF/AUCu,blood; PRO group, Probenecid 50 mg/kg i.p. + LVFX 50 mg/kg; N=5; read-out: K p,uu,ECF
PARAMETER MEASURED: Kp

# Kp lookup, item C[C@H]1COc2c(N3CCN(C)CC3)c(F)cc3c(=O)c(C(=O)O)cn1c23 [LVFX, Levofloxacin]
0.337

====

PROTOCOL DETAILS: In vivo microdialysis pharmacokinetics of LVFX without transporter inhibitors
Design: species or system rat
CONDITION LABEL: rat, brain ECF, iv, 50 mg/kg, brain ECF; Group 2: 1.25% NaHCO3 solution + LVFX 50 mg/kg; mean ± SD, n=3
Protocol: On the day of surgery, rats were anesthetized using inhaled isoflurane via a facemask. The rats were placed in a stereotaxic frame (Gene&I), and the body temperature was maintained with a homoeothermic blanket set at 37°C. A midline incision was made to expose the skull. […]
PARAMETER MEASURED: MRT (h)
One number for each entry, in h.

# MRT lookup, item C[C@H]1COc2c(N3CCN(C)CC3)c(F)cc3c(=O)c(C(=O)O)cn1c23 [LVFX, Levofloxacin]
1.4

====

System: Multidrug resistance-associated proteins (MRPs)
PROTOCOL DETAILS: In vivo microdialysis pharmacokinetics of LVFX with MRPs inhibitor MK571
Design: species or system rat
CONDITION LABEL: rat, brain ECF (hippocampal microdialysate) relative to blood, intravenous, with MK571 20 mg/kg intraperitoneally, 30 min before LVFX; AUCu,ECF/AUCu,blood; MK571 group, MK571 20 mg/kg i.p. + LVFX 50 mg/kg; N=5; read-out: K p,uu,ECF
PARAMETER MEASURED: Kp

# Kp lookup, item `C[C@H]1COc2c(N3CCN(C)CC3)c(F)cc3c(=O)c(C(=O)O)cn1c23`
0.46

====

PROTOCOL DETAILS: In vivo microdialysis pharmacokinetics of LVFX without transporter inhibitors
Design: species or system rat
CONDITION LABEL: rat, blood (microdialysate, unbound), iv, 50 mg/kg, pH 9, blood; Group 3: physiological saline alkalinized with NaOH (pH 9.0–9.2) + LVFX 50 mg/kg; mean ± SD, n=3
PARAMETER MEASURED: AUC(0-inf) (ng·h/mL)
Give bare numbers, in ng·h/mL.

# AUC(0-inf) lookup, item C[C@H]1COc2c(N3CCN(C)CC3)c(F)cc3c(=O)c(C(=O)O)cn1c23 [LVFX, Levofloxacin]
10100

====

PROTOCOL DETAILS: In vivo microdialysis pharmacokinetics of LVFX without transporter inhibitors
Parameters: species or system rat
CONDITION LABEL: rat, blood (microdialysate, unbound), iv, 50 mg/kg, blood; Group 4: LVFX 50 mg/kg alone; mean ± SD, n=3
Protocol: On the day of surgery, rats were anesthetized using inhaled isoflurane via a facemask. The rats were placed in a stereotaxic frame (Gene&I), and the body temperature was maintained with a homoeothermic blanket set at 37°C. A midline incision was made to expose the skull. […]
PARAMETER MEASURED: AUC(0-inf)
State the value, then name its unit.

# AUC(0-inf) lookup, item C[C@H]1COc2c(N3CCN(C)CC3)c(F)cc3c(=O)c(C(=O)O)cn1c23 [LVFX, Levofloxacin]
11700 ng·h/mL

====

PROTOCOL DETAILS: In vivo microdialysis pharmacokinetics of LVFX without transporter inhibitors
Design: species or system rat
CONDITION LABEL: rat, lateral ventricle CSF (microdialysate, unbound), iv, 50 mg/kg, lateral ventricle CSF; control group, vehicle + LVFX 50 mg/kg tail vein; mean ± SD, N=12
PARAMETER MEASURED: MRT (h)
Give bare numbers, in h.

# MRT lookup, item C[C@H]1COc2c(N3CCN(C)CC3)c(F)cc3c(=O)c(C(=O)O)cn1c23 [LVFX, Levofloxacin]
1.26

====

System: Organic anion transporters (OATs)
PROTOCOL DETAILS: In vivo microdialysis pharmacokinetics of LVFX with OATs inhibitor probenecid
Parameters: species or system rat
CONDITION LABEL: rat, brain ECF (hippocampal microdialysate, unbound), intravenous, with Probenecid 50 mg/kg i.p., 30 min before LVFX; brain ECF; PRO group, Probenecid 50 mg/kg i.p. + LVFX 50 mg/kg; mean ± SD, N=5; read-out: AUC0–180 (converted)
PARAMETER MEASURED: AUC(0-t) (µg·h/mL)
Give bare numbers, in µg·h/mL.

# AUC(0-t) lookup, item `C[C@H]1COc2c(N3CCN(C)CC3)c(F)cc3c(=O)c(C(=O)O)cn1c23`
7.83

====

PROTOCOL DETAILS: In vivo microdialysis pharmacokinetics of LVFX without transporter inhibitors
Set-up: species or system rat
CONDITION LABEL: rat, brain ECF, iv, 50 mg/kg, brain ECF; Group 2: 1.25% NaHCO3 solution + LVFX 50 mg/kg; mean ± SD, n=3
PARAMETER MEASURED: half-life (min)
One number for each entry, in min.

# half-life lookup, item `C[C@H]1COc2c(N3CCN(C)CC3)c(F)cc3c(=O)c(C(=O)O)cn1c23`
53.4

====

Tested on: P-glycoprotein (P-gp)
PROTOCOL DETAILS: In vivo microdialysis pharmacokinetics of LVFX with P-gp inhibitor Tariquidar
Design: species or system rat
CONDITION LABEL: rat, brain ECF (hippocampal microdialysate, unbound), intravenous, with Tariquidar 8 mg/kg i.p., 30 min before LVFX; brain ECF; TAR group, Tariquidar 8 mg/kg i.p. + LVFX 50 mg/kg; mean ± SD, N=5
PARAMETER MEASURED: MRT

# MRT lookup, item `C[C@H]1COc2c(N3CCN(C)CC3)c(F)cc3c(=O)c(C(=O)O)cn1c23`
1.43 h

====

Test system: Organic anion transporters (OATs)
PROTOCOL DETAILS: In vivo microdialysis pharmacokinetics of LVFX with OATs inhibitor probenecid
Design: species or system rat
CONDITION LABEL: rat, intravenous, with Probenecid 50 mg/kg i.p., 30 min before LVFX; blood; PRO group, Probenecid 50 mg/kg i.p. + LVFX 50 mg/kg; mean ± SD, N=5
PARAMETER MEASURED: AUC(0-inf) (ng·h/mL)
Answers are plain numbers, in ng·h/mL.

# AUC(0-inf) lookup, item `C[C@H]1COc2c(N3CCN(C)CC3)c(F)cc3c(=O)c(C(=O)O)cn1c23`
27000

====

Tested on: Organic anion transporters (OATs)
PROTOCOL DETAILS: In vivo microdialysis pharmacokinetics of LVFX with OATs inhibitor probenecid
Design: species or system rat
CONDITION LABEL: rat, CSF (lateral ventricle microdialysate, unbound), intravenous, with Probenecid 50 mg/kg i.p., 30 min before LVFX; CSF; PRO group, Probenecid 50 mg/kg i.p. + LVFX 50 mg/kg; mean ± SD, N=5
PARAMETER MEASURED: MRT (h)
Answers are plain numbers, in h.

# MRT lookup, item `C[C@H]1COc2c(N3CCN(C)CC3)c(F)cc3c(=O)c(C(=O)O)cn1c23`
1.47

====

Tested on: Organic anion transporters (OATs)
PROTOCOL DETAILS: In vivo microdialysis pharmacokinetics of LVFX with OATs inhibitor probenecid
Set-up: species or system rat
CONDITION LABEL: rat, CSF (lateral ventricle microdialysate, unbound), intravenous, with Probenecid 50 mg/kg i.p., 30 min before LVFX; CSF; PRO group, Probenecid 50 mg/kg i.p. + LVFX 50 mg/kg; mean ± SD, N=5
PARAMETER MEASURED: half-life
State the value, then name its unit.

# half-life lookup, item C[C@H]1COc2c(N3CCN(C)CC3)c(F)cc3c(=O)c(C(=O)O)cn1c23 [LVFX, Levofloxacin]
57.5 min

====

System: Organic anion transporters (OATs)
PROTOCOL DETAILS: In vivo microdialysis pharmacokinetics of LVFX with OATs inhibitor probenecid
Parameters: species or system rat
CONDITION LABEL: rat, brain ECF (hippocampal microdialysate, unbound), intravenous, with Probenecid 50 mg/kg i.p., 30 min before LVFX; brain ECF; PRO group, Probenecid 50 mg/kg i.p. + LVFX 50 mg/kg; mean ± SD, N=5
PARAMETER MEASURED: Cmax
State the value, then name its unit.

Find the measured Cmax: item `C[C@H]1COc2c(N3CCN(C)CC3)c(F)cc3c(=O)c(C(=O)O)cn1c23` , target or system Organic anion transporters (OATs).
5850 ng/mL

====

PROTOCOL DETAILS: In vivo microdialysis pharmacokinetics of LVFX without transporter inhibitors
Set-up: species or system rat
CONDITION LABEL: rat, CSF, iv, 50 mg/kg, CSF; Group 4: LVFX 50 mg/kg alone; mean ± SD, n=3
PARAMETER MEASURED: AUC(0-inf) (ng·h/mL)
Numbers only, in ng·h/mL.

# AUC(0-inf) lookup, item C[C@H]1COc2c(N3CCN(C)CC3)c(F)cc3c(=O)c(C(=O)O)cn1c23 [LVFX, Levofloxacin]
4680
